These data points were gathered from patent US20230083012A1.

Test system: HBV
PROTOCOL: Anti-HBV activity in HepG2.2.15 cells (HBV DNA in culture medium by qPCR)
Type: cell-based
MEASUREMENT_CONDITIONS: Hepatitis B virus, HepG2.2.15, 144 h, HepG2.2.15 cells, 6 days treatment, HBV DNA in culture medium quantified by real-time PCR; read-out: EC50
Listed next: entries and their corresponding EC50.
API: value field is a number in nM; no unit string.

// known answers, use as guide
{"MOLECULE": "CCOC(=O)C1=C(CN2CC(F)(F)[C@H]3[C@@H]2CCN3C[C@H]2C[C@](C)(C(=O)O)C2)NC(c2nccs2)=N[C@H]1c1cccc(F)c1C (single isomer, unassigned) [Compound 116B]", "QUANTITATIVE_RESULT": 2.5}
{"MOLECULE": "CCOC(=O)C1=C(CN2CC(F)(F)[C@@H]3C(=O)N(C[C@H](CC)C(=O)O)C[C@@H]32)NC(c2nccs2)=N[C@H]1c1cccc(F)c1C (single isomer, unassigned) [Compound 182B]", "QUANTITATIVE_RESULT": 11.3}
{"MOLECULE": "CCOC(=O)C1=C(CN2CC(F)(F)[C@H]3[C@@H]2CCN3CCC(C)(C)C(=O)O)NC(c2nccs2)=N[C@H]1c1cccc(F)c1F (single isomer, unassigned) [Compound 142]", "QUANTITATIVE_RESULT": 8}
{"MOLECULE": "CCOC(=O)C1=C(CN2CC(F)(F)[C@@H]3CN(CC(C)(C)C(=O)O)C[C@@H]32)NC(c2nccs2)=N[C@H]1c1cccc(F)c1C (single isomer, unassigned) [Compound 12B]", "QUANTITATIVE_RESULT": 8.2}

Could you now consider this next molecule?
Reported EC50, molecule CCOC(=O)C1=C(CN2C[C@@H](F)[C@@]3(F)C(=O)N(CC(C)(C)C(=O)O)C[C@@H]23)NC(c2nccs2)=N[C@H]1c1cccc(F)c1C (single isomer, unassigned) [Compound 204A] : ____
11.2
